- Test system: NCI-H23
- ASSAY: NCI tumour cell line growth inhibition, 48 h
Activity calls are given as the source filed them. No stated cut-off is given here; in the data, active = GI50 up to about 1.1 µM and inactive = higher.
Listing: GI50 of selected compounds

Examples with their reported GI50 follow.
Using known records, supply GI50 for Brc1ccc(/N=N/N2CCCC2)cc1
45.2 µM (inactive)

For CCCCCCCCCCCCCCCCCc1cc(Cl)nc(Cl)n1 , write its GI50.
> 100 µM (inactive)

Provide measured GI50 value, entry: COC1(OC)CC2CCCCC2=C(C)N1S(=O)(=O)c1ccccc1 (configuration not stated)
> 100 µM (inactive)

Give recorded GI50. O=c1c2cc(Br)ccc2oc2ccc(Br)cc12
> 100 µM (inactive)

For the compound CCN(CC)/[N+]([O-])=N/OC , report GI50.
> 100 µM (inactive)

Continuing:
Give recorded GI50. CC(C)NC(=O)OCc1c(COC(=O)NC(C)C)c(-c2ccc[n+](COC(=O)C(C)C)c2)n2c1CCC2
33.5 µM (inactive)

Give the reported value of GI50 for this record: O=C1Nc2ccccc2/C1=N/Nc1c(F)c(F)c(F)c(F)c1F
87.7 µM (inactive)

---

- Test system: HCT-116
- ASSAY: NCI tumour cell line growth inhibition, 48 h
Activity calls are given as the source filed them. Rule as the data show it: active = GI50 up to about 1.1 µM and inactive = higher.
// allowed return values: y = active, n = inactive

Take a look at these entries with their results.
Per the assay record, what outcome was assigned to CN(C)CCn1c(=O)c2ccc(NCCNCCO)c3c(=O)c4cc(O)ccc4n(c1=O)c23 ?
y

Given O=C(O)CCC[C@]1(O)O[C@@]2(CCCC2=O)[C@]2(O)CCC[C@@]21O , state the outcome it received in this test.
n

Would you mind telling me which call this test gave COc1ccc(OC)c(NC(=O)C(=O)C(C(C)=O)c2nc3ccc(Cl)cc3nc2O)c1 (stereo not given) ?
n

Could you kindly confirm the outcome this assay logged for Cc1cccc2c1c(=O)c1c(O)cc3c(c1n2C)C=CC(C)(C)O3 ?
n

Let us examine a further case.
Outcome logged for CC(=O)NC1C(OCc2ccccc2)OC(CO)C(O)C1OCC(=O)NC(C(=O)NC(CCC(=O)NCCCCCC(=O)Nc1ccc2c(c1)CN1C(=O)c3ccccc3C1=N2)C(N)=O)C(C)C (stereo not given) in this assay:
n

---

- System: Malme-3M
- ASSAY: NCI tumour cell line growth inhibition, 48 h
Calls of active or inactive are those of the source. No stated cut-off is given here; in the data, active = GI50 up to about 1.1 µM and inactive = higher.
Return exactly one item of TRUE = active, FALSE = inactive

Recorded test outcome, item COc1c(O)cc(C(=O)O[C@@H]2Cc3c(O)cc(O)cc3O[C@@H]2c2cc(O)c(O)c(O)c2)cc1O
FALSE

Per the assay record, what outcome was assigned to CC(C)=CCC/C(C)=C/CCC1(C)C=Cc2c(c3ccccc3oc2=O)O1 (stereo not given) ?
FALSE

Could you please tell me the result logged for CC[C@H](CCCC[C@H]1CC[C@@H]2CC(=O)C[C@H]12)OC in this assay?
FALSE

***
# lookup: test call for Cc1ccc2ccccc2c1CSc1nc(N)nc2c1ncn2CC(C)C
FALSE

Check the results log: what was the call for CCCCCCC(O)CC[C@H]1CCC[C@@H](C)N1 (stereo not given in full) ?
FALSE

Just curious, what result did CN1CCN(c2ccc3[nH]c(-c4ccc5[nH]c(-c6ccc(N(C)CCCl)cc6)nc5c4)nc3c2)CC1 get here?
TRUE

Identify the outcome logged in this assay for the compound shown: CCOC(=O)/C=C(\C(=O)OCC)n1cc(C)c(=O)n(Cc2cn(CCCCOC(C)=O)nn2)c1=O
FALSE

What did the test return for CN(CCO)CCCC1COc2ccccc2O1 (stereo not given) ?
FALSE

Just curious, what result did O=C1c2ccccc2N2OC3(N4CCOCC4)CCCC3C12c1ccccc1 (stereo not given) get here?
FALSE

Record request — test call for O=C(O)C1(C(=O)O)CCN(S(=O)(=O)c2ccccc2)CC1
FALSE

---

- System: MDA-MB-435
- ASSAY: NCI tumour cell line growth inhibition, 48 h
Active and inactive are the calls of the source. Rule as the data show it: active = GI50 up to about 1.1 µM and inactive = higher.
The following compounds are listed with their measured GI50 values.

Some solved cases for reference:
Query GI50 for N=C(N)N/N=C/c1c(-c2ccc([N+](=O)[O-])cc2)nc2sccn12
1.5 µM (inactive)

Query GI50 for CSc1ncc2c(n1)sc1c(=O)n(-c3ccccc3)cnc12
> 100 µM (inactive)

Consider the compound CC(C)CNP(=O)(NCC(C)C)Oc1ccc(CC(NC(=O)OCc2ccccc2)C(=O)OCc2ccccc2)cc1 (stereo unspecified) . State its measured GI50.
10 µM (inactive)

Give the reported GI50 for this compound. O=C(/C=C/c1ccc(O)c(O)c1)OCCc1cccc2ccccc12
2.02 µM (inactive)

// Input: CC1OC(n2cnc3c(N)nc(Cl)nc32)C(C)(O)C1O (stereo unspecified) . Output its GI50 only.
> 25 µM (inactive)

Now consider a different compound.
Answer with the recorded GI50 of CCOC(=O)C(CCSC)(CCSC)C(=O)OCC only.
> 100 µM (inactive)

---

- Tested on: SK-MEL-28
- ASSAY: NCI tumour cell line growth inhibition, 48 h
The source made the active and inactive calls. Rule as the data show it: active = GI50 up to about 1.1 µM and inactive = higher.
Response enum: 1.0 = active, 0.0 = inactive

Examples with answers:
Which outcome was entered for the molecule CCc1n[nH]c(=O)n1-c1ccc2ccccc2c1 in this test?
0.0

What call does the record list for CCN1c2cc(Br)cc3[nH]c(=O)n(c23)CCC1C (stereo unspecified) ?
0.0

Status in this test for COC1(CCO)CC=CCC1(CCO)OC (stereo unspecified) ?
0.0

Fill in: this test's call for CC(C)NC(=O)OCc1c(COC(=O)NC(C)C)c(-c2ccc[n+](COC(=O)C(C)C)c2)n2c1CCC2 is ___
0.0

Hi, sorry to bother you, what did the test record for COC(=O)C1=C(O)C(C(=O)OC)[C@@]2(O)[C@@H](C(=O)OC)C(c3ccc(OC(=O)/C=C/c4ccccc4)cc3)C[C@@H]1[C@@H]2C(=O)OC (stereo partly specified) ?
0.0

Field: outcome | Entry: O=C1OC2c3ccccc3C(=O)C2(c2ccccc2)N1c1ccccc1 (stereo unspecified)
0.0

New cases:
Please share the test call associated with CC(C)(C)C1CC[C@H]2c3c([nH]c4ccc(Br)cc34)[C@H]3C(=O)N(c4ccccc4)C(=O)[C@H]3[C@H]2C1 (stereo partly specified) .
0.0

# lookup: test call for CC(C)CNP(=O)(NCC(C)C)Oc1ccc(CC(NC(=O)OCc2ccccc2)C(=O)OCc2ccccc2)cc1 (stereo unspecified)
0.0

What did this assay record as the result for Cn1c2ccccc2c2c3c(c4c5ccccc5n(C)c4c21)C(=O)N(c1ccccc1)C3=O ?
0.0

---

- Tested on: DLD-1
- ASSAY: NCI tumour cell line growth inhibition, 48 h
Active and inactive are the calls of the source. Rule as the data show it: active = GI50 up to about 1.1 µM and inactive = higher.
ATTRIBUTE MEASURED: GI50

The cases that follow already have their GI50 on record.
For DLD-1, give GI50 of the listed compound: COC(C)(C)[C@H](O)C(O)CC(C)[C@@H]1CCC23CC12CCC1[C@@]2(C)CCC(OC(C)=O)C(C)(C)C2CC(OC2OC(COC(C)=O)C(O)C(O)C2O)[C@]13C (some centres not stated)
1.83 µM (inactive)

Param request: GI50 | system DLD-1 | item CCOC(=O)/C=C(\C)c1ccc(Cl)cc1
> 100 µM (inactive)

Please look at CC(C)=CCC/C(C)=C/CCC1(C)C=Cc2c(c3ccccc3oc2=O)O1 (configuration not stated) and tell me its recorded GI50 on DLD-1.
14.7 µM (inactive)

For DLD-1, give the measured GI50 of the entry COC1C(OC(=O)/C=C/C=C/C=C/C=C/C(=O)O)CCC2(CO2)C1C1(C)OC1CC=C(C)C (configuration not stated)
26.7 µM (inactive)

Others:
# return GI50 for O=S1(=O)OCCOS(=O)(=O)C1Cc1ccccc1 , test system: DLD-1
43 µM (inactive)

Give GI50 only, for CCN(CC)c1ccc(/N=N/c2ccc(-c3nc4cccn(C)c-4n3)cc2)cc1 , using DLD-1 data.
4.83 µM (inactive)

Give reported GI50 for Cc1cc(N(CCC#N)CCC#N)ccc1/C=C1/CN(N2C(=O)/C(=C/c3ccc(N(CCC#N)CCC#N)cc3C)N=C2c2ccccc2)C(c2ccccc2)=N1 (DLD-1)
> 100 µM (inactive)

Please respond with reported GI50 (system DLD-1) for COC(=O)/C=C(C)/C=C/C1OC(C)OCC1O (configuration not stated) .
> 100 µM (inactive)

For DLD-1, give the measured GI50 of the entry Cc1cc(CC(=O)NCCO)n(CCO)c(=O)c1
> 100 µM (inactive)

Give GI50 for this entry on DLD-1: CN(C)c1ccc(/C=C/c2cc[n+](C)c3ccccc23)cc1
2.68 µM (inactive)

Fill: GI50 (DLD-1) for this compound CCO/C=C/C(C)C1(C(=O)OCC)CCCCC1=O (configuration not stated)
> 100 µM (inactive)

With DLD-1 as the test system, provide measured GI50 for this compound: CN1CCCc2nc3ccccc3n2C1
> 100 µM (inactive)

Identify measured GI50 obtained with DLD-1 for CN1c2ccccc2N(C(=O)c2ccc(Cl)cc2)C(CC(=O)O)c2cccn21 (configuration not stated) .
> 100 µM (inactive)

Provide DLD-1 GI50 reading for Oc1ccc2c3c1OC1C(=NN=C4CCC5(O)C6Cc7ccc(O)c8c7C5(CCN6CC5CC5)C4O8)CCC4(O)C(C2)N(CC2CC2)CCC314 (configuration not stated) .
46 µM (inactive)

State GI50 (DLD-1) of CCOC(=O)C1=C(Nc2ccc(Br)cc2)OCC1=O .
> 100 µM (inactive)

Provide the reported GI50 (system: DLD-1) for CCN(CC)CCn1ccc(=O)c2cc3c(=O)ccn(CCN(CC)CC)c3c(C)c21
1.65 µM (inactive)

Answer briefly: GI50 recorded on DLD-1 for CC1(C)O[C@@H](C[C@]2(C#N)C[C@H](CCl)OC(C)(C)O2)C[C@@H](C#N)O1
> 100 µM (inactive)

Please tell me the measured GI50 for COC1=C2CC(C)CC(OC)C(O)C(C)/C=C(\C)C(OC(N)=O)C(OC)/C=C\C=C(/C)C(=O)NC(=C(/C=N/C(C)(C)C)C1=O)C2=O (configuration not stated) ; system: DLD-1.
6.05 µM (inactive)

Provide the reported GI50 (system: DLD-1) for C/C(=N\NS(=O)(=O)c1ccccc1)c1ccccc1
> 100 µM (inactive)

Enter measured GI50, system DLD-1, for the compound shown: Cc1cccc(C)c1NC(=O)C(=O)C(C#N)c1ccccc1 (configuration not stated)
> 100 µM (inactive)

Please look at CCCCCCCCCCCCOP(N)(=O)OCCCCCCCCCCCC and tell me its recorded GI50 on DLD-1.
> 100 µM (inactive)

Look up and report measured GI50 (DLD-1) for the following compound: CCC(=O)C(C)C(=O)C(=O)C(=O)OC (configuration not stated)
> 100 µM (inactive)

State, for DLD-1, measured GI50 of the compound listed here: Oc1nc2cc(Cl)ccc2nc1/C(=N\Nc1ccccc1)C(O)c1ccc(Cl)c(Cl)c1 (configuration not stated)
> 100 µM (inactive)

Would you please give the reported GI50 of O=C1CCCC/C(=C/c2ccccc2)N1 with DLD-1?
> 100 µM (inactive)
